Test system: RAW-Dual (murine macrophage reporter line)
protocol_text: NF-kB reporter (SEAP) activity fold change vs agonist alone; higher = enhanced NF-kB activity
test_settings: modulator concentration 10 µM; agonist: CpG ODN 1826 0.5 ug/mL
Tick y if NF-kB reporter is 0.9 or greater. Tick n if NF-kB reporter is less than 0.9.

query: hey, is NF-kB reporter for this one >= 0.9? CC(=O)Oc1cc2c(s1)CCN(C(C(=O)C1CC1)c1ccccc1F)C2.Cl (stereo not given)
result: n

query: hey, is NF-kB reporter for this one >= 0.9? "Cc1cc(OCC(=O)NNC(=O)COc2ccc(Br)cc2Br)cc(C)c1Cl"
result: y

query: hey, is NF-kB reporter for this one >= 0.9? "CC(O)C(=O)O.CN1CCN(c2ccc3nc(-c4c(N)c5c(F)cccc5[nH]c4=O)[nH]c3c2)CC1"
result: n

query: hey, is NF-kB reporter for this one >= 0.9? "Cc1cnc2c(c1NCCCO)c(=O)n(C)c(=O)n2C"
result: y
